# target-or-system: baNadD (Bacillus anthracis, UniProt C3L5T6)
# Sequence (C3L5T6 whole entry, looked up): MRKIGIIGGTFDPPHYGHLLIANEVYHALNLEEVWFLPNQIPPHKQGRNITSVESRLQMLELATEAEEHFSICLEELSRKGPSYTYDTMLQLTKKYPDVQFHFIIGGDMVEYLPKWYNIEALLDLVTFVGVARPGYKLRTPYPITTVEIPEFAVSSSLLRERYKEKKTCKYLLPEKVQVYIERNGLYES
# assay-remarks: biochemical
# Type: biochemical

>  <structure-notation>
Nc1nnc(SCC(=O)Nc2nccs2)n1-c1ccccc1

>  <target-or-system>
baNadD (Bacillus anthracis, UniProt C3L5T6)

>  <[…]. anthracis (%)>
0

$$$$
>  <structure-notation>
O=C(O)c1cc(Cl)c(Cl)cc1C(=O)Nc1ccc(O)cc1

>  <target-or-system>
baNadD (Bacillus anthracis, UniProt C3L5T6)

>  <[…]. anthracis (%)>
0

$$$$
>  <structure-notation>
Nc1nn(S(=O)(=O)c2ccccc2)cc1-c1ccc(Cl)cc1

>  <target-or-system>
baNadD (Bacillus anthracis, UniProt C3L5T6)

>  <[…]. anthracis (%)>
0

$$$$
>  <structure-notation>
O=C(O)C1=C(c2cc([N+](=O)[O-])ccc2O)N=S=N1

>  <target-or-system>
baNadD (Bacillus anthracis, UniProt C3L5T6)

>  <[…]. anthracis (%)>
1

$$$$
>  <structure-notation>
CCn1c(SCC(N)=O)nnc1-c1ccc(Cl)cc1

>  <target-or-system>
baNadD (Bacillus anthracis, UniProt C3L5T6)

>  <[…]. anthracis (%)>
0

$$$$
>  <structure-notation>
COC(=O)c1sc(NC(=O)/C=C/C(=O)O)nc1C

>  <target-or-system>
baNadD (Bacillus anthracis, UniProt C3L5T6)

>  <[…]. anthracis (%)>
0

$$$$
>  <structure-notation>
Cc1noc(C)c1S(=O)(=O)Nc1ccc(Br)cc1

>  <target-or-system>
baNadD (Bacillus anthracis, UniProt C3L5T6)

>  <[…]. anthracis (%)>
4

$$$$
>  <structure-notation>
CC(=O)c1ccc(NS(=O)(=O)c2ccc(N)cc2)cc1

>  <target-or-system>
baNadD (Bacillus anthracis, UniProt C3L5T6)

>  <[…]. anthracis (%)>
0

$$$$
>  <structure-notation>
COc1cc(OC)cc(-c2cn[nH]c2N)c1

>  <target-or-system>
baNadD (Bacillus anthracis, UniProt C3L5T6)

>  <[…]. anthracis (%)>
0

$$$$
>  <structure-notation>
COc1ccc(S(=O)(=O)Nc2ccc(C(N)=O)cc2)cc1Cl

>  <target-or-system>
baNadD (Bacillus anthracis, UniProt C3L5T6)

>  <[…]. anthracis (%)>
0

$$$$

---

# target-or-system: ecNadD (Escherichia coli (strain K12), UniProt P0A752)
# assay-remarks: biochemical
# conditions-used: IC50 ecNadD
pIC50: −log10 of the molar value.

>  <compound>
Nc1c(C(=O)Nc2ccc(F)c(F)c2)sc2nc(-c3cccs3)ccc12 [03_14]

>  <comparative-sign>
=

>  <pIC50>
3.93

$$$$
>  <compound>
Nc1c(C(=O)Nc2ccc(F)cc2F)sc2nc(-c3cccs3)ccc12 [03_07]

>  <comparative-sign>
=

>  <pIC50>
4.36

$$$$
>  <compound>
Cc1ccc(N/C=C2\C(=O)Nc3ccccc32)cc1Cl [15_01]

>  <comparative-sign>
<

>  <pIC50>
3.70

$$$$
>  <compound>
Nc1c(C(=O)Nc2cccc(Cl)c2)sc2nc(-c3ccc(F)cc3)ccc12 [03_16]

>  <comparative-sign>
=

>  <pIC50>
4.30

$$$$
>  <compound>
Nc1c(C(=O)Nc2c(Cl)cccc2Cl)sc2nc(-c3cccnc3)ccc12 [03_20]

>  <comparative-sign>
<

>  <pIC50>
3.70

$$$$
>  <compound>
Nc1c(C(=O)Nc2cccc(Cl)c2)sc2nc(-c3cccs3)ccc12 [03_12]

>  <comparative-sign>
=

>  <pIC50>
4.15

$$$$
>  <compound>
Nc1c(C(=O)Nc2ccc(Cl)cc2)sc2nc(-c3ccc(F)cc3)ccc12 [03_08]

>  <comparative-sign>
<

>  <pIC50>
3.70

$$$$
>  <compound>
O=C1Nc2ccccc2/C1=C/Nc1ccc(Br)cc1F [compound 015]

>  <comparative-sign>
=

>  <pIC50>
4.52

$$$$
>  <compound>
Nc1c(C(=O)Nc2ccc(Cl)cc2Cl)sc2nc(-c3ccncc3)ccc12 [03_04]

>  <comparative-sign>
=

>  <pIC50>
4.68

$$$$
>  <compound>
Nc1c(C(=O)Nc2cc(Cl)cc(Cl)c2)sc2nc(-c3cccs3)ccc12 [03_03]

>  <comparative-sign>
=

>  <pIC50>
4.19

$$$$
>  <compound>
Nc1c(C(=O)Nc2cc(F)ccc2F)sc2nc(-c3cccs3)ccc12 [03_18]

>  <comparative-sign>
=

>  <pIC50>
4.46

$$$$
>  <compound>
O=C(CCC(=O)Nc1ccccc1Cl)NN=Cc1ccc(C=NNC(=O)CCC(=O)Nc2ccccc2Cl)cc1 [1—02—1]

>  <comparative-sign>
=

>  <pIC50>
4.89

$$$$
>  <compound>
Nc1c(C(=O)Nc2ccc(F)cc2)sc2nc(-c3ccncc3)ccc12 [03_06]

>  <comparative-sign>
<

>  <pIC50>
3.70

$$$$
>  <compound>
O=C1Nc2ccccc2/C1=C/Nc1ccc(Br)cc1 [15_09]

>  <comparative-sign>
<

>  <pIC50>
3.70

$$$$
>  <compound>
Nc1c(C(=O)Nc2ccc(F)c(Cl)c2)sc2nc(-c3ccncc3)ccc12 [03_22]

>  <comparative-sign>
=

>  <pIC50>
4.00

$$$$
>  <compound>
Cc1cccc(N/C=C2\C(=O)Nc3ccccc32)c1 [15_28]

>  <comparative-sign>
<

>  <pIC50>
3.70

$$$$
>  <compound>
Cc1ccc(N/C=C2\C(=O)Nc3ccccc32)cc1C [15_14]

>  <comparative-sign>
=

>  <pIC50>
4.06

$$$$
